This collection of values is drawn from paper PMC9352680.

Molecular target: T1, PUF4 RNA-binding domain (Saccharomyces cerevisiae, UniProt P25339 537-888)
T1 sequence: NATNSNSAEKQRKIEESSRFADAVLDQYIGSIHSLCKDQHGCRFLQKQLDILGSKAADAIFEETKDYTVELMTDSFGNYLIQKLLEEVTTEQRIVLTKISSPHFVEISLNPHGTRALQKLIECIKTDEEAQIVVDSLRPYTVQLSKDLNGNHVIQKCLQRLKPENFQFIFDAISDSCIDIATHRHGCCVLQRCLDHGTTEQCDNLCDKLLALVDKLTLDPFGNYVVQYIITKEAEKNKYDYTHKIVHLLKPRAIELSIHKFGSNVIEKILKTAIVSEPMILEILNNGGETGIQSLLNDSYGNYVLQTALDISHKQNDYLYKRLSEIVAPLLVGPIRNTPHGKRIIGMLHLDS
Test: Mg; RNA-MaP; 20 mM Na-HEPES pH 7.4, 30 mM KOAc, 0.75 mM MgCl2, 0.1% Tween-20, 5% glycerol, 0.1 mg/mL BSA, 2 mM DTT; 25 C; 0.0125-409.6 nM protein
Conditions: tags: N-His6-TEV cleaved; C-SNAP kept, Cy3B-labelled; label: tethered on chip by stalled RNA polymerase
Overview of recorded Kd for various binders
Could you give me the number in µM? Just the number is fine.

Solved cases (5 shown):
• UCUCUUCGUGUAUUAUUAAUUCUCUU (ssRNA) [Id_ii_S1_P5E.2_K5.1_C5.2_[T-1G]_H5.1_A5.1_F5.1_T5.2_[T11A]_[A12T]] = 0.0101
• Ib_S2_P4E.1_K4.1_C4.1_H4.1_[A4C]_A4.1_[T7A]_F4.1_T4.1 (ssRNA) RNA: UUUGAUUAAUAUGAUAUCGUUCUUUCUUGUCUAAUAUUCUUUCUCGAUAUCAUAUUAAUCUUU = 0.016
• Id_ii_S4_P3E.4_K3.3_C3.2_[C-2G]_[T-1C]_H3.3_A3.1_F3.1_T3.2_[T9G]_[A10T] (ssRNA) RNA: UUUGACAACUGAUCGUUCUUUCUGCACACUAUAGUUUCUUUCUCGAUCAGUUGUCUUU = 0.593
• Ie_S4_P4E.1_K4.1_C4.1_H4.1_[+3CCC]_A4.1_F4.1_T4.1 (ssRNA) RNA: UUUGACAACUGAUCGUUCUUUCUUGUCCCAUAUUAUUCUUUCUCGAUCAGUUGUCUUU = 0.015
• UCUCUUUUACACUAUAUAUCUCUU (ssRNA) [Id_ii_S1_P3E.4_K3.3_C3.2_[C-2T]_H3.3_A3.1_F3.1_T3.2] = 1.03

## Task Which Kd value is on record for UCUCUUUGUAUAUAUAUUUCUCUU (ssRNA) [Id_ii_S1_P3E.3_K3.2_C3.2_[C-2T]_[T-1G]_H3.2_A3.1_F3.1_T3.2_[A10T]] ?
## Result 0.005
